Origin of measurements: paper PMC2756588

# Measured On: Myo3, P36006
# Test Summary: SPOT array
# Stated Conditions: median of control spots 468
// assign Met if SPOT intensity falls strictly below 20, else Not met (ties count as Not met)

INSERT INTO assay_data (binder, class_assignment) VALUES
  ('AVPPPPPPPPLPESL', 'Not met'),
  ('ALRRRLPVTRSKINW', 'Met'),
  ('NPTKSPPPPPSPSTM', 'Not met'),
  ('NNNKMRPHLPPLSSG', 'Met'),
  ('TEVPIPRRPPPPQAA', 'Not met'),
  ('FFRRSELYLPNSSKA', 'Met'),
  ('IHTRRPSSTSQYLIR', 'Met'),
  ('KMSRSPPRPPSLKII', 'Not met'),
  ('VPKEPAPAPPPEPDM', 'Not met'),
  ('LASNSPPVYPKRIRH', 'Met');
